Data credit: PubChem BioAssay (NCI)

- Test system: LOX IMVI melanoma
- experimentalDetails: NCI tumour cell line growth inhibition, 48 h

[
  {
    "molecule": "CCN(CC)Cc1ccc(C(=S)Nc2ccc(C)cc2)s1",
    "TGI": "30.2 µM"
  },
  {
    "molecule": "COc1cccc(Nc2nc(N)nc(N)c2N)c1",
    "TGI": "40.2 µM"
  },
  {
    "molecule": "COC(=O)[C@H]1COC(=O)N1",
    "TGI": "> 100 µM"
  },
  {
    "molecule": "C/C(O)=C(\\C#N)C(=O)Nc1ccc(C(F)(F)F)cc1",
    "TGI": "> 100 µM"
  },
  {
    "molecule": "CN(Cc1cc(Br)cc(Br)c1O)Cc1c(O)ccc2ccccc12",
    "TGI": "42.5 µM"
  },
  {
    "molecule": "O=C(c1ccccc1)c1nc2ccc(Cl)cc2c2c1CCCO2",
    "TGI": "> 100 µM"
  },
  {
    "molecule": "C=C1C(=O)O[C@H]2[C@H]1CC/C(COC(=O)C(C)c1ccc(CC(C)C)cc1)=C\\CC[C@@]1(C)O[C@@H]21 (some centres not stated)",
    "TGI": "3.01 µM"
  },
  {
    "molecule": "O=C(Nc1cccc(Cl)c1)c1cccc(NC2=C(Cl)C(=O)N(Cc3ccccc3)C2=O)c1",
    "TGI": "> 100 µM"
  },
  {
    "molecule": "CN(C)c1nncc2n[nH]nc12",
    "TGI": "> 100 µM"
  },
  {
    "molecule": "CC1(N)CCN(c2cnc(-c3cccc(Cl)c3Cl)c(N)n2)CC1",
    "TGI": "30 µM"
  },
  {
    "molecule": "Cc1nc2[nH]ncn2c(=O)c1CCCl",
    "TGI": "> 10 µM"
  },
  {
    "molecule": "Cc1ccnc2[nH]c(-c3ccc(F)cc3)cc(=O)c12",
    "TGI": "> 100 µM"
  },
  {
    "molecule": "CCN(CC)C(=S)SCN1C(=O)c2ccccc2S1(=O)=O",
    "TGI": "> 66.8 µM"
  },
  {
    "molecule": "O=C1OC(C2(O)OC(=O)c3ccccc32)c2ccccc21 (configuration not stated)",
    "TGI": "> 100 µM"
  },
  {
    "molecule": "CC1CN(c2cc3c(cc2F)c(=O)c(C(=O)O)cn3-c2ccc(F)cn2)CC(C)N1 (configuration not stated)",
    "TGI": "> 100 µM"
  },
  {
    "molecule": "CCCCCCCCCC(=O)OCC1OC(n2cc(F)c(=O)[nH]c2=O)C(NC(=O)OCc2ccccc2)C(OC(=O)CCCCCCCCC)C1O (configuration not stated)",
    "TGI": "30.2 µM"
  },
  {
    "molecule": "O=C1c2ccccc2C(=O)C1C(c1ccc(F)cc1)C1C(=O)c2ccccc2C1=O",
    "TGI": "> 100 µM"
  },
  {
    "molecule": "CC(C)(C)c1ccc(OCCOCCOc2ccc(C(C)(C)C)cc2S(=O)(=O)Nc2ccc([N+](=O)[O-])cc2)c(S(=O)(=O)Nc2ccc([N+](=O)[O-])cc2)c1",
    "TGI": "> 100 µM"
  },
  {
    "molecule": "CN=C(N)c1ccc(N=C(N)c2ccc(C(N)=Nc3ccc(C(N)=NC)cc3)cc2)cc1",
    "TGI": "> 100 µM"
  },
  {
    "molecule": "Clc1ccc(C[P+]2(c3ccccc3)CCCCC2)cc1",
    "TGI": "> 100 µM"
  },
  {
    "molecule": "C[N+](C)(C)c1cc2c(nn1)Nc1ccccc1S2",
    "TGI": "43.8 µM"
  },
  {
    "molecule": "COc1cc(C(=O)CC2OC(=O)C(Cl)=C2Cl)ccc1Cl (configuration not stated)",
    "TGI": "> 100 µM"
  }
]
